- assay: soluble on expression in E. coli; label from the status in PepcDB or PDB records
quantity: soluble on expression in E. coli

seq_string=MGHHHHHHSHDDSSEWGNSFFWNQLLHVPLRQHQVSCCDWLLKIICGVVTIRTVYASHKQAKACLVSRVSCERTGTRFHTRGVNDDGHVSNFVETEQMIYMDDGVSSFVQIRGSVPLFWEQPGLQVGSHHLRLHRGLEANAPAFDRHMVLLKEQYGQQVVVNLLGSRGGEEVLNRAFKKLLWASCHAGDTPMINFDFHQFAKGG endpoint_result="not soluble"
seq_string=GSRTVDLELELQIELLRETKRKYESVLQLGRALTAHLYSLLQTQHALGDAFADLSQKSPELQEEFGYNAETQKLLCKNGETLLGAVNFFVSSINTLVTKTMEDTLMTVKQYEAARLEYDAYRTDLEELSLGPRDAGTRGRLESAQATFQAHRDKYEKLRGDVAIKLKFLEENKIKVMHKQLLLFHNAVSAYFAGNQKQLEQTLQQFNIKLRPPGAEKPSWLEEQ endpoint_result=soluble
seq_string=SQLPPGKPEIFKCRSPNKETFTCWWRPGTDGGLPTNYSLTYHREGETLMHECPDYITGGPNSCHFGKQYTSMWRTYIMMVNATNQMGSSFSDELYVDVTYIVQPDPPLELAVEVKQPEDRKPYLWIKWSPPTLIDLKTGWFTLLYEIRLKPEKAAEWEIHFAGQQTEFKILSLHPGQKYLVQVRCKPDHGYWSAWSPATFIQIPSDFTMND endpoint_result=soluble
seq_string=MSLERAVPLAVPLGQTEVFQALQRLHMTIFSQSVSPCGKFLAAGNNYGQIAIFSLSSALSSEAKEESKKPVVTFQAHDGPVYSMVSTDRHLLSAGDGEVKAWLWAEMLKKGCKELWRRQPPYRTSLEVPEINALLLVPKENSLILAGGDCQLHTMDLETGTFTRVLRGHTDYIHCLALRERSPEVLSGGEDGAVRLWDLRTAKEVQTIEVYKHEECSRPHNGRWIGCLATDSDWMVCGGGPALTLWHLRSSTPTTIFPIRAPQKHVTFYQDLILSAGQGRCVNQWQLSGELKAQVPGSSPGLLSLSLNQQPAAPECKVLTAAGNSCRVDVFTNLGYRAFSLSEGHHHHHH endpoint_result="not soluble"
seq_string=MSYLDTATDLPNQTLFLEYLNIALSNARRHHAQVGVLLCQINNWSDLKRKRGDAVANAFLQEAGQKLKSNLRNGDIVSRWDKDEFIFLVSKVQDTSSLLGIAQRLMKPVLAPVTAGGRPFQPEITYGVALYPVDGEQVNDLIGHIRENLQQLLPQPTNPGSGLEHHHHHH endpoint_result=soluble
seq_string=MGSDKIHHHHHHMKSYVLTVSCKSTRGIVAAITGYLAEKGCYISDSSQFDDFQTGLFFMRLTFISQDGAKLEELREGFEPVIKRFEMMMEIRDSEERMKVLLMVSRFGHCLNDLLYRWKIGALPIDIVGVVSNHFDYQKVVVNHDIPFHHIKVTKENKPKAEAQLMDVVEQTGAELIVLARYMQVLSDALCKKMSGKIINIHHSFLPSFKGANPYKQAYERGVKLIGATAHYVTADLDEGPIIEQDIARITHAQSAEDYVSIGRDVESQVLARAVHAHIHHRCFINGNRVVVFPPSPGSYASERMG endpoint_result="not soluble"
seq_string=DVVVTQTPLSLPVSLGDQASISCRSSEVIVTRNGYTPIEWYLQKPGQSPKLLIYKAYKRFPGVPDRFSGSGSGTDFTLKISRVEAEDLGVYYCFDGSTVPPKFGGGTKLEIKRADAAPTVSIFPPSSEQLTSGGASVVCFLNNFYPKDINVKWKIDGSERQNGVLNSWTDQDSKDSTYSMSSTLTLTKDEYERHNSYTCEATHKTSTSPIVKSFNRDEC endpoint_result=soluble
seq_string=MGHHHHHHSHYGSLNPKAITISQYGEPFVVGTSRVVEIIRKLRERFGEVRIDIQTNGTLLEPEILGSEADIVMISLDAGSRESYAEITGKDFFERVVKNIEKMSEHTYTVVRTVFMPGINDEELERIAEIASQADELFLQPLSIYRENTELLKRLDVERAESLGDYLQTAYRLSEIASVRIPGCLLLNMRWFLREFEIGEL endpoint_result="not soluble"
seq_string=MVCISRFLPVKGVQNINGKELKSIVGKKGKYFIDVRTVGEYRGNHMKGFQNIPLNDLASKANQLDKNKEVIVICQSGMRSKQAAKVLKKLGFQQVINVSGGMNSL endpoint_result="not soluble"
seq_string=VERAQDGLYTIDERGVIDFCNDSFAATLGYEPGKLCGTHILEVLAPGEFPKGQAAVEELLEAPDQESTTVDLTFRRKDGAERELSFNHTLTHDEAGNYNGVIGVARDVT endpoint_result="not soluble"
seq_string=MTIKYLTKNDVLAACIGGSVYASGGGGFYEHGLEMGEAAVALSPVVLKTIDEFEEDDLIITQTAIGAPAGTTDWQMLGKDYIRAVELLLEKHPHPEKIKGILTPQNGKSSSTNGWLSASALGLAVVHATGDIRAHPTGKMGNMGVANDTTYETIQAVSGGRRETGRHIELSVQGTAAYTSKILRIASDLSGGFIAAARHPLTASYIKQNAVIGGLSKAIELGYCILEHQNEDGSSIIDAIVKHTHGEILAKGKVVAKDMTYTDEAFDVGKVKIKTESDNVTLHVQNEFMAVDSQALGRVATYPDVITLFRAKDAKALSTDEISIDEEVVVFKISHKHFPLSTGVKDPSVYPEVENVLGIDLYRHAFKLEHHHHHH endpoint_result=soluble
seq_string=MSRYCSECGKARKACLCPSIVALESAVELIILQHPTEQKRPLGTARILSLSLANCRLLVGEDFREHDELNQLLAEPDVDYYVLYPNEHAQECTKISLTTARKTRVILLDGTWKKAYKMWQINTQLHDLPSLHLPDECVGHYRIRKAPDDTALSTVEAGYHLLQQWQPERDFSPLLKVFDAMIQYQIDQMPEGVFERNYRQLEHHHHHH endpoint_result="not soluble"
seq_string=MQCCVQLVPFWDTSGVSTMFDYQVSKHPHFDEACRAFALRHNLVQLAERAGMNVQILRNKLNPAQPHLLTAPEIWLLTDLTEDSTLVDGFLAQIHCLPCVPINEVAKEKLPHYVMSATAEIGRVAAGAVSGDVKTSAGRRDAISSINSVTRLMALAAVSLQARLQANPAMASAVDTVTGLGASFGLL endpoint_result="not soluble"

Just for reference, the DeepSol protein solubility set is where these values come from.
